Molecular target: Cyclin-G-associated kinase (Homo sapiens, UniProt O14976)
Sequence (O14976 whole entry): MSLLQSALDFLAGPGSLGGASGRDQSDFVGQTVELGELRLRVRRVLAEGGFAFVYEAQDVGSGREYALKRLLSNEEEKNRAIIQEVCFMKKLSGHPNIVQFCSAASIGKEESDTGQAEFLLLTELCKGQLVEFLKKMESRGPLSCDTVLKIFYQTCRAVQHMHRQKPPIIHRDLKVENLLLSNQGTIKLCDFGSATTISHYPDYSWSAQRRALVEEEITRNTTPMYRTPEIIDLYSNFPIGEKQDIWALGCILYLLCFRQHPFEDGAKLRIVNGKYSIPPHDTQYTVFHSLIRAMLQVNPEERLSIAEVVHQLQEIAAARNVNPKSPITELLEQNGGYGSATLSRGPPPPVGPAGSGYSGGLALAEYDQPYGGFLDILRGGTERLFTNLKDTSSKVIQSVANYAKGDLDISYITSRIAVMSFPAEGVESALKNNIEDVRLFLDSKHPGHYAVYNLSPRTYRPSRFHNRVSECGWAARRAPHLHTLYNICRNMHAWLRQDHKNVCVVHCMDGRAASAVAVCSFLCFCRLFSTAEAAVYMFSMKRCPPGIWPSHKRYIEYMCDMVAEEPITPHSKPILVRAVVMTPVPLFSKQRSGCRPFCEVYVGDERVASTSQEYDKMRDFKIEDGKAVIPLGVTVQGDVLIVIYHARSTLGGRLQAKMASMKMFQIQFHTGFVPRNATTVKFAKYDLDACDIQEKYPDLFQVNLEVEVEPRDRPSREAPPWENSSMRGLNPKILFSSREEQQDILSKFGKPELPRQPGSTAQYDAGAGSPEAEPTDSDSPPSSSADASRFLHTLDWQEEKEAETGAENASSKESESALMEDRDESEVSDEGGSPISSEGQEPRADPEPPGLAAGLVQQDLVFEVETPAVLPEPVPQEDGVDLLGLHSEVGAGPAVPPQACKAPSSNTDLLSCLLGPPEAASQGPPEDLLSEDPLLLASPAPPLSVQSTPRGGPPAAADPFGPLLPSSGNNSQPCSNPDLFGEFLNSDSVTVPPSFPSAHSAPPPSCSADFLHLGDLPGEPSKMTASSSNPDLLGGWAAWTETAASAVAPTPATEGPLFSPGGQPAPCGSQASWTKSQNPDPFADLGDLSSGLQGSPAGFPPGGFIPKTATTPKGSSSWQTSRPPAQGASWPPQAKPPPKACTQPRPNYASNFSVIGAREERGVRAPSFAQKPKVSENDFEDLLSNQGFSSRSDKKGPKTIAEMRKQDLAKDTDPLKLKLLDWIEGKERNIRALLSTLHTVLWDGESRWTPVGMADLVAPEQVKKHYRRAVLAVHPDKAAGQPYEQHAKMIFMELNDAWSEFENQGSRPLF
Measured property: Ki (µM)

A. COc1cc(Nc2cc(C)nc3ccc(C(F)(F)F)cc23)cc(OC)c1OC
B. Cc1[nH]nc(Nc2ncnc3cc(OCCO)c(S(=O)(=O)C(C)(C)C)cc23)c1C
C. COc1cc(N(C)c2ccnc3ccc(C(F)(F)F)cc23)cc(OC)c1OC
D. Clc1cc2cc(c1)-c1cnn3ccc(nc13)NCCOCCO2
Task: Returns the items ordered by Ki, from maximum to minimum. Give the labels in the order specified.
Result: A, C, B, D

----------
Target: Serine/threonine-protein kinase 16 (Homo sapiens, UniProt O75716)
Sequence (O75716 whole entry): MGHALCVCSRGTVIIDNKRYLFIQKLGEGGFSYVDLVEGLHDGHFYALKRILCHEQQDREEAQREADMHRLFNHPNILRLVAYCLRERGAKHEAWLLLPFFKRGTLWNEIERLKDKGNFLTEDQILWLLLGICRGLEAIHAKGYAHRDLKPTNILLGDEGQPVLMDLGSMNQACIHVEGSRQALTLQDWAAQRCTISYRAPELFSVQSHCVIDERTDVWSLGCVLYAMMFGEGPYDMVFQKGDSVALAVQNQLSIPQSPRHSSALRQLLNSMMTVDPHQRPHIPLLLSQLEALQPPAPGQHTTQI
Measured property: pKi
# pKi is unitless: minus log10 of the molar concentration; print number only

Task: Which pKi is reported for this molecule? COc1cc(N(C)c2ccnc3ccc(C(F)(F)F)cc23)cc(OC)c1OC
Result: 4.82

----------
Biological target: Cyclin-G-associated kinase (Homo sapiens)
Assay: Binding affinity to GAK (unknown origin)
Measured property: pKd
In textbook form, pKd equals minus log to base ten of the concentration in mol/L.

Task: Quick check: pKd of COc1cc(-c2cnc3c(N4CCOCC4)snc3c2)cc(OC)c1OC ?
Result: 8.05

----------
Each entry below carries its measured pKd, system: Serine/threonine-protein kinase NLK (Homo sapiens).
Sequence (Q9UBE8 whole entry): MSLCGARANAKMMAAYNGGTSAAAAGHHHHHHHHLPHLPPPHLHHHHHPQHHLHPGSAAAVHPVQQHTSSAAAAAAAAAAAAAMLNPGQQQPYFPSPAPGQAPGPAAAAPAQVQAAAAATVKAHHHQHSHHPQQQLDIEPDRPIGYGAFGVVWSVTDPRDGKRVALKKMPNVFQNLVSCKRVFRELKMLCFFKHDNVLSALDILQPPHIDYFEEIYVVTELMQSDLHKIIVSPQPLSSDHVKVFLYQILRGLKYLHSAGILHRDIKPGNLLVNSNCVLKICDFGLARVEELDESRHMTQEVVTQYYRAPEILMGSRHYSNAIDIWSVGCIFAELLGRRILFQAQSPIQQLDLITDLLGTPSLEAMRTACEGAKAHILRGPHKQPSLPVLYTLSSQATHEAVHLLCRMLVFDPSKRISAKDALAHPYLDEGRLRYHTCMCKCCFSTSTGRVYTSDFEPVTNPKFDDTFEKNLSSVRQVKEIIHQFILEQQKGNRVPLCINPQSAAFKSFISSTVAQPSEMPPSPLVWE
pKd: −log10 of the molar value.
Measured property: pKd

Please review the entries below; each comes with its answer.
[[record]]
mol_smiles = "COc1ccc2c(Nc3cc(OC)c(OC)c(OC)c3)ccnc2c1"
measured_target = "Serine/threonine-protein kinase NLK (Homo sapiens)"
measured_property = "pKd"
numeric_readout = 6.15

[[record]]
mol_smiles = "COc1cc(Nc2ccnc3ccc(Cl)cc23)cc(OC)c1OC"
measured_target = "Serine/threonine-protein kinase NLK (Homo sapiens)"
measured_property = "pKd"
numeric_readout = 6.19


I. COc1cc(Nc2ccnc3ccc(I)cc23)cc(OC)c1OC
II. COc1cc(Nc2ccnc3ccc(C#N)cc23)cc(OC)c1OC
III. COc1cc(Nc2ccnc3ccccc23)cc(OC)c1OC
Task: Arrange these molecules by their pKd, starting with the largest number. # format: label list in the order the request specifies
Result: II, I, III
(II: 7.54, I: 6.18, III: 5.21)

----------
Target: Cyclin-G-associated kinase (Homo sapiens)
Experiment: Binding affinity to biotinylated human GAK (13 to 338 residues) expressed in Escherichia coli incubated for 1.5 hrs by fluorescent tracer dependent TR-FRET based competitive ligand binding displacement assay
pKd: −log10 of the molar value.
Measured property: pKd

Here's what some known entries look like.
[[record]]
mol_smiles = "COc1cc(Nc2ccnc3ccc(Cl)cc23)cc(OC)c1OC"
numeric_readout = 8.17

[[record]]
mol_smiles = "COc1cc(Nc2ccnc3ccc(I)cc23)cc(OC)c1OC"
numeric_readout = 8.10

[[record]]
mol_smiles = "COc1cc(Nc2ccnc3ccc(C(C)(C)C)cc23)cc(OC)c1OC"
numeric_readout = 7.60


A. COc1ccc2c(Nc3cc(OC)c(OC)c(OC)c3)ccnc2c1
B. COc1cc2nccc(Nc3cc(OC)c(OC)c(OC)c3)c2cc1OC
Task: Form field 'greater pKd' accepts A or B ; which applies? Your answer should be the label attached to the chosen record.
Result: B
(B: 8.54, A: 7.77)

I. COc1ccc2nccc(Nc3cc(OC)c(OC)c(OC)c3)c2c1
II. COc1cc(Nc2ccnc3ccc(C#N)cc23)cc(OC)c1OC
Task: Determine, for I and II , which has the greater value of pKd. Reply with the label of the item you choose.
Result: II
(II: 8.41, I: 7.68)

P. COc1cc(Nc2ccnc3ccccc23)cc(OC)c1OC
Q. COc1cc(Nc2ccnc3cc(C#N)ccc23)cc(OC)c1OC
Task: Kindly identify which of P and Q has the larger recorded pKd value. Answer by stating the label of the chosen item.
Result: Q
(Q: 8.01, P: 7.23)

----------
Molecular target: Atypical kinase COQ8A, mitochondrial (Homo sapiens, UniProt Q8NI60)
Sequence (Q8NI60 whole entry): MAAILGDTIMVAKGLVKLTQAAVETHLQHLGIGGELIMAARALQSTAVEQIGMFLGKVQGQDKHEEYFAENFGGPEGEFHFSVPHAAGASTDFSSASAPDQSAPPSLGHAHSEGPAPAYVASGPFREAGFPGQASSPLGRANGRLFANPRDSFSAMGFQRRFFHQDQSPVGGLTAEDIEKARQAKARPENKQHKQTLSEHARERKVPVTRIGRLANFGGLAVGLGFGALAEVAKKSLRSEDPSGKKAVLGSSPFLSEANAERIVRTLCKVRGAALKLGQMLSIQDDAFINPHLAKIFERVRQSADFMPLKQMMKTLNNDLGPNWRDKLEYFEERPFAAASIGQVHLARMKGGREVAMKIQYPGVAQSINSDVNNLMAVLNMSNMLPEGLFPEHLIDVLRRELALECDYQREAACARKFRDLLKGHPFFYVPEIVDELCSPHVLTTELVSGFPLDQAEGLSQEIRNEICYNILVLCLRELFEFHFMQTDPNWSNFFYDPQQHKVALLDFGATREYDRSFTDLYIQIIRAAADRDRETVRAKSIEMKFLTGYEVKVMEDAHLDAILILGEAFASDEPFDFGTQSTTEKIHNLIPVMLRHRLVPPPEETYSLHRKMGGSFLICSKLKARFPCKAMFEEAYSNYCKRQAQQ
Experiment: Binding affinity to biotinylated full length human ADCK3 expressed in Escherichia coli incubated for 1.5 hrs by fluorescent tracer dependent TR-FRET based competitive ligand binding displacement assay
Measured property: Kd (nM)

Known Kd results, listed for orientation:
[[record]]
mol_smiles = "COc1cc(Nc2ccnc3ccccc23)cc(OC)c1OC"
numeric_readout = 4100

[[record]]
mol_smiles = "COc1cc(Nc2ccnc3ccc(C(C)(C)C)cc23)cc(OC)c1OC"
numeric_readout = 740

[[record]]
mol_smiles = "COc1cc(Nc2ccnc3ccc(Cl)cc23)cc(OC)c1OC"
numeric_readout = 170


1. COc1cc(Nc2ccnc3ccc(I)cc23)cc(OC)c1OC
2. COc1ccc2c(Nc3cc(OC)c(OC)c(OC)c3)ccnc2c1
Task: Field: lower Kd | Options: 1 / 2 Your answer should be the label attached to the chosen record.
Result: 1
(1: 190 nM, 2: 1200 nM)

----------
Target: BMP-2-inducible protein kinase (Homo sapiens, UniProt Q9NSY1)
Sequence (Q9NSY1 whole entry): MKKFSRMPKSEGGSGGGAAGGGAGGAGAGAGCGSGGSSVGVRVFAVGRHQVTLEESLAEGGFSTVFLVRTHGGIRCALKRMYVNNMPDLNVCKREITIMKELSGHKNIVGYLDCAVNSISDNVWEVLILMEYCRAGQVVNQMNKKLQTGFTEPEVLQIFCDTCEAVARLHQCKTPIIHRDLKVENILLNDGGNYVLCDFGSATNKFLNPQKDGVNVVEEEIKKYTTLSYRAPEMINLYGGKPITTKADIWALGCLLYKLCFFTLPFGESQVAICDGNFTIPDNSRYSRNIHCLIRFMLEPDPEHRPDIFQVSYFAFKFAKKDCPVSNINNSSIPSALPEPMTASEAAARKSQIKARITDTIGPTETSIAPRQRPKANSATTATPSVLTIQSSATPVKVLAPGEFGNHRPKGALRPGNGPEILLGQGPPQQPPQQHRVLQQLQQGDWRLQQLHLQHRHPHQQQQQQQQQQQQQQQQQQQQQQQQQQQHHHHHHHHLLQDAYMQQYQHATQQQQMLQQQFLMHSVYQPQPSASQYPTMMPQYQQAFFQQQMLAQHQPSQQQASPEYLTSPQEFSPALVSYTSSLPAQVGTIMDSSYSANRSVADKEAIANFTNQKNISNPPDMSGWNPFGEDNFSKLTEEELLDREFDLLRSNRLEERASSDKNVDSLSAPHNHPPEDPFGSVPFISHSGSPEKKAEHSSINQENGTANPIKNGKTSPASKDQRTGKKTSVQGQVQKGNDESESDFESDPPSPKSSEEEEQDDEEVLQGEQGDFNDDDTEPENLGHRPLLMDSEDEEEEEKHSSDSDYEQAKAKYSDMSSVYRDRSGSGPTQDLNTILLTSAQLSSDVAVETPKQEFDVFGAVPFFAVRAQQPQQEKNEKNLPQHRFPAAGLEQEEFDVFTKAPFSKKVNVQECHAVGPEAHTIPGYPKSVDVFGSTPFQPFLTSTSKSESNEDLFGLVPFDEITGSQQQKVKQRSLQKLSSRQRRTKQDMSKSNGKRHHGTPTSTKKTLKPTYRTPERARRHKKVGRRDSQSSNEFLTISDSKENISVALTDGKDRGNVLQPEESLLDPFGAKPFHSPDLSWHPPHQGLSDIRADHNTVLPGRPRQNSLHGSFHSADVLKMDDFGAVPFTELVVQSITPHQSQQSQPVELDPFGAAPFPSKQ
Measured property: pKi
Kindly note that pKi refers to -log10 of the concentration in mol/L and answer with the value alone.

Task: Lab request: please report pKi under test system BMP-2-inducible protein kinase (Homo sapiens, UniProt Q9NSY1) for COc1cc(N(C)c2ccnc3ccc(C(F)(F)F)cc23)cc(OC)c1OC
Result: 4.02

----------
Target: Cyclin-G-associated kinase (Homo sapiens, UniProt O14976)
Sequence (O14976 whole entry): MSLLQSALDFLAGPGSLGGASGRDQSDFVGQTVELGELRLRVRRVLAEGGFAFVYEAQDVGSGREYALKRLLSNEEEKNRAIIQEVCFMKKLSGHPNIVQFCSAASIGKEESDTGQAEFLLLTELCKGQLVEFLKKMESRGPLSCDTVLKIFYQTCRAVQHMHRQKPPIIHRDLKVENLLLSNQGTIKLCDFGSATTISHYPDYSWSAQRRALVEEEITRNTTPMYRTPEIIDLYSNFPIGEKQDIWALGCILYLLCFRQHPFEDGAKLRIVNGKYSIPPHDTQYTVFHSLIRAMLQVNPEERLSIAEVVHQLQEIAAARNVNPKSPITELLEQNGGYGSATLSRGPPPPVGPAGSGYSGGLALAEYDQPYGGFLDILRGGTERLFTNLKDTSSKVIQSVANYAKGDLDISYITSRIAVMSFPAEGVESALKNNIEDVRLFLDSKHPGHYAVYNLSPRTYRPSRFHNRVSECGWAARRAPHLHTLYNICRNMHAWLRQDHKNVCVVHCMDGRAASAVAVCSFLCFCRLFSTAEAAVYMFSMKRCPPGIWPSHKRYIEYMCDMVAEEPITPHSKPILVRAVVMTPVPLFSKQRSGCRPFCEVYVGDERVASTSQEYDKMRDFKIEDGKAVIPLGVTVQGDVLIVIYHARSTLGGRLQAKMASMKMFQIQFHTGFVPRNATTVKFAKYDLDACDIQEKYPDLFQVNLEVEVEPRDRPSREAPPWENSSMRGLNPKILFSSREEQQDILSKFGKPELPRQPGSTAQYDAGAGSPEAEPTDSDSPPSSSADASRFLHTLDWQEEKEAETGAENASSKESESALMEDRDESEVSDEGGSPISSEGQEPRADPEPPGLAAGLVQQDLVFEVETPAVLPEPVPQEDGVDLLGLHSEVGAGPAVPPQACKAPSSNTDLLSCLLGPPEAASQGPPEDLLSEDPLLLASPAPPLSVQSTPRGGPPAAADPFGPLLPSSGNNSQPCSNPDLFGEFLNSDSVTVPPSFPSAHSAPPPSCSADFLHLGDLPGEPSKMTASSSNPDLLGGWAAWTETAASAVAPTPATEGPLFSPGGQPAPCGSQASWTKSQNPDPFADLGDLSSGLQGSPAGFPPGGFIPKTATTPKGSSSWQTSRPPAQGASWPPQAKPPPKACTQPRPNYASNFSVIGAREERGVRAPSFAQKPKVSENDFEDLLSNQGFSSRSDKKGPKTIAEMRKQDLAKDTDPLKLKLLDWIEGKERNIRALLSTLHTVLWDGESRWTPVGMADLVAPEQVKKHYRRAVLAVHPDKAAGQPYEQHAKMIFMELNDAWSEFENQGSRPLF
Assay: Displacement of fluorescent tracer from N-terminus of human GAK expressed in HEK293T cells after 2 hrs by NanoBRET target engagement assay
Measured property: pIC50
Reminder that pIC50 means the negative base-10 logarithm of the concentration expressed in mol/L.

Task: Give its pIC50 value. Item: Clc1cc2cc(c1)-c1cnn3ccc(nc13)NCCOCCO2
Result: 7.22
